# System: Renca cells
# PROCEDURE DETAILS: Renca sulforhodamine B (SRB) assay, cell growth inhibition
# Type: cell-based
# EXPERIMENTAL SETUP: Mus musculus, Renca, 48 h
MEASURED PARAMETER: pIC50
One number for each entry, as −log10 of the molar value.

GET /value?item= COc1ccc2c(C(=O)c3cc(OC)c(OC)c(OC)c3)c(-c3ccc(OC)c(OP(=O)(O)O)c3)[nH]c2c1 &field=pIC50 returns 5.84

###

# PROCEDURE DETAILS: Pharmacokinetic study in Renca-luc tumor-bearing BALB/c mice
# Type: in vivo, mouse
# EXPERIMENTAL SETUP: male, BALB/c, mouse, in vivo, ip, 250 mg/kg, heart; after OXi8007 250 mg/kg IP; read-out: Tmax (converted)
MEASURED PARAMETER: Tmax (min)
Numbers only, in min.

{"MOLECULE": "COc1ccc2c(C(=O)c3cc(OC)c(OC)c(OC)c3)c(-c3ccc(OC)c(O)c3)[nH]c2c1 [OXi8006]", "Tmax / min": 20}

With those in mind, consider the next molecule.
GET /value?item= COc1ccc2c(C(=O)c3cc(OC)c(OC)c(OC)c3)c(-c3ccc(OC)c(OP(=O)(O)O)c3)[nH]c2c1 [OXi8007] &field=Tmax returns 20

###

# PROCEDURE DETAILS: Pharmacokinetic study in Renca-luc tumor-bearing BALB/c mice
# Type: in vivo, mouse
# EXPERIMENTAL SETUP: male, BALB/c, mouse, ip; glucuronide metabolite, lungs; after OXi8007 250 mg/kg
MEASURED PARAMETER: half-life
Provide the measurement as a number trailed by its unit.

GET /value?item= COc1ccc2c(C(=O)c3cc(OC)c(OC)c(OC)c3)c(-c3ccc(OC)c(O[C@@H]4O[C@H](C(=O)O)[C@@H](O)[C@H](O)[C@H]4O)c3)[nH]c2c1 [OXi8006 Glucuronide] &field=half-life returns 2.05 h

###

# PROCEDURE DETAILS: Pharmacokinetic study in Renca-luc tumor-bearing BALB/c mice
# Type: in vivo, mouse
# EXPERIMENTAL SETUP: male, BALB/c, mouse, in vivo, 250 mg/kg; plasma, within 4 h after OXi8007 IP
MEASURED PARAMETER: concentration at 4 h (ng/mL)
Answers are plain numbers, in ng/mL.

GET /value?item= COc1ccc2c(C(=O)c3cc(OC)c(OC)c(OC)c3)c(-c3ccc(OC)c(OP(=O)(O)O)c3)[nH]c2c1 &field=concentration at 4 h returns 10000

###

I'd be grateful if you could share measured Cmax for these entries.
# PROCEDURE DETAILS: Pharmacokinetic study in Renca-luc tumor-bearing BALB/c mice
# Type: in vivo, mouse
# EXPERIMENTAL SETUP: male, BALB/c, mouse, in vivo, ip, 250 mg/kg, left kidney; after OXi8007 250 mg/kg IP; read-out: Cmax
Give bare numbers, in ng/g.

{"TEST SMILES": "COc1ccc2c(C(=O)c3cc(OC)c(OC)c(OC)c3)c(-c3ccc(OC)c(O)c3)[nH]c2c1", "VALUE UNITS": "ng/g", "Cmax": 5860}

GET /value?item= COc1ccc2c(C(=O)c3cc(OC)c(OC)c(OC)c3)c(-c3ccc(OC)c(OP(=O)(O)O)c3)[nH]c2c1 &field=Cmax returns 1400

Recorded values, source paper PMC11898701.
